Readings of CC50 at 1 h for the listed compounds
- procedureText: Cytotoxicity against MDCK cells incubated for 1 hr by MTT assay
- Format: toxicity, cell-based, Canis lupus familiaris
- appliedConditions: dog
Express your answer in µM, writing the number without its unit.

CCOC(=O)c1c(CSc2ccccc2)n(C)c2cc(Br)c(O)c(CN(C)C)c12.Cl: 32.9

Turning now to a further compound:
Request: CC50 at 1 h lookup needed for CC(C)CCC[C@@H](C)[C@H]1CC[C@H]2[C@@H]3CC=C4C[C@@H](OC(=O)CN[C@@H](CCCCN)C(=O)N[C@@H](CCCCN)C(=O)N[C@@H](Cc5c[nH]c6ccccc56)C(=O)N[C@@H](CCCCN)C(N)=O)CC[C@]4(C)[C@H]3CC[C@]12C , thanks.
Result: 44.3
